Reported growth values are given for each entry in this list.
System: NCI-H460 lung
PROTOCOL_DESCRIPTION: NCI-60 one-dose screen, 48 h (100 = growth as untreated, 0 = no growth, -100 = all killed)
SETTINGS: 10 µM unless noted
About 83,000 compounds went through this panel and 20% of them were active in at least one assay; those are over-represented in the sample as a whole.
READOUT: growth (%)

{"COMPOUND": "O=C(COc1ccc(Cl)cc1)N1CCN(Cc2ccc3c(c2)OCO3)CC1", "UNIT_ABBREV": "%", "REPORTED_RESULT": 107}
{"COMPOUND": "CC(C)(c1ccc(OCC(O)CNCc2ccco2)cc1)c1ccc(OCC(O)CNCc2ccco2)cc1 (stereo not drawn)", "UNIT_ABBREV": "%", "REPORTED_RESULT": 98}
{"COMPOUND": "O=C(N/N=C/c1ccccc1O)c1ccccc1O", "UNIT_ABBREV": "%", "REPORTED_RESULT": 13.2}
{"COMPOUND": "COc1cc2c(cc1OC)-c1c(oc3c4c(ccc3c1=O)OC(C)(C)C=C4)CO2", "UNIT_ABBREV": "%", "REPORTED_RESULT": 77.1}
{"COMPOUND": "CC1(C)N=C(N)N=C(N)N1c1ccc(OCC(=O)Nc2ccccc2)c(Cl)c1", "UNIT_ABBREV": "%", "REPORTED_RESULT": 15.3}
{"COMPOUND": "COc1ccccc1S(=O)(=O)Nc1ccc2c3c(cc(-c4ccoc4)nc13)C(=O)N2C", "UNIT_ABBREV": "%", "REPORTED_RESULT": 70.9}
{"COMPOUND": "COc1cc(NC(=O)C#Cc2ccccc2)c(OC)cc1Cl", "UNIT_ABBREV": "%", "REPORTED_RESULT": 17.8}
{"COMPOUND": "COc1ccc2c(c1)O/C(=C/c1ccc(OCC(=O)Nc3ccc(S(N)(=O)=O)cc3)cc1)C2=O", "UNIT_ABBREV": "%", "REPORTED_RESULT": 101}
